# Experiment notes: In vivo BBB-penetration studies (LC-MS/MS of brain and plasma)
# Design: species or system mouse
# Conditions used: Swiss Webster, mouse, plasma, subcutaneous; 10 mg/kg s.c., 10 min, n = 3, mean ± SD; read-out: Plasma concentration
# Method: Swiss Webster mice (three mice each time point) were administered compound 6 (10 mg/kg, s.c.) or vehicle. At 5-, 10-, and 30 min time points post administration, the mice were euthanized by decapitation, and blood and brain samples were collected. Blood samples were centrifuged at 15,000 g for 10 min at 4 °C to isolate plasma. […] Compound 6 was identified and quantified in mouse plasma and brain using a modified version of a previously established method, with naloxone-d5 as the internal standard.[20] […]
Endpoint name: concentration at 10 min (ng/mL)
Provide the reading as a plain figure in ng/mL.

Find the recorded concentration at 10 min belonging to `O=C(N[C@H]1CC[C@@]2(O)[C@H]3Cc4ccc(O)c5c4[C@@]2(CCN3CC2CC2)[C@H]1O5)c1nccs1` and report it. 1360
